Entry source: patent US9133220B2

experiment: Measuring spectral characteristics (absorption and emission maxima, extinction coefficients); format: physicochemical; conditions: ethanol
METRIC: Emis. peak

Worked examples, 3 compounds total:
[[record]]
smiles_notation = "CC1=N/C(=C\\c2ccc(N)cc2B(F)F)C(=O)N1C"
result = "532 nm"

[[record]]
smiles_notation = "CC1=N/C(=C\\c2ccc(N(C)C)cc2B(F)F)C(=O)N1C"
result = "557 nm"

[[record]]
smiles_notation = "CCN(CC)c1ccc(/C=C2\\N=C(C)N(C)C2=O)c(B(F)F)c1"
result = "558 nm"


Proceeding to the next compound to report its Emis. peak.
Short answer for `CCN(CC)c1ccc(/C=C2N=C(/C=C/N(C)C)N(C)C\2=O)c(B(F)F)c1` : Emis. peak was 588 nm
